Data origin: patent EP2062578A1

Biological target: Nef57-205 (Human immunodeficiency virus type 1 group M subtype B)
Construct: Purified Nef57-205, as described in Arold et al, Structure 1997 5(10) p 1361); made in house
Test: Isothermal Titration Calorimetry (ITC) binding to Nef57-205
Design: species or system HIV-1
Measurement kind: Kd

* CC(C)(C)c1ccc(OC(=O)Nc2ccc(O)c(C(=O)O)c2)cc1 | 1800 nM

Would you kindly look at the next entry?
Query: Bench note: what Kd did "CC(C)(C)c1ccc(OCC(=O)Nc2cccc(C(=O)O)c2)cc1" show?
Result: 980 nM
